The reported measurements were obtained from PubChem BioAssay (NCI).

Below: a set of entries, each annotated with reported TGI.
# Test system: DLD-1 colon
# protocol-notes: NCI tumour cell line growth inhibition, 48 h
measured-parameter: TGI

{"compound": "COc1ccc(/C(Cl)=C/c2cc(OC)ccc2OC)cc1", "value-measured": "> 100 µM"}
{"compound": "COc1cccc(N[C@@H]2c3cc4c(cc3C(c3cc(OC)c(O)c(OC)c3)[C@H]3C(=O)OCC32)OCO4)c1 (stereo not given in full)", "value-measured": "8.35 µM"}
{"compound": "C#Cc1c(C)c(/C=C/C(C)=C/C(=O)OC)n(C)c1C", "value-measured": "> 100 µM"}
{"compound": "Cc1ccccc1-c1nc2c(C(=O)NCCN(C)C)cccc2[nH]1", "value-measured": "> 100 µM"}
{"compound": "COC(=O)CC(NC(=O)OCc1ccccc1)C(C(=O)OCc1ccccc1)C(C)(OC)OC (stereo not given)", "value-measured": "> 100 µM"}

====

# System: SK-OV-3 ovarian
# protocol-notes: NCI tumour cell line growth inhibition, 48 h
Listing: TGI of selected molecules
measured-parameter: TGI

{"molecule": "C=C=C(CC(CC(=C)Br)(C(=O)OC)C(=O)OC)S(=O)(=O)c1ccccc1", "measured-parameter": "TGI", "value-measured": "30.2 µM"}
{"molecule": "COc1cc(C2C(Cl)C(=O)N2c2c(C)n(C)n(-c3ccccc3)c2=O)ccc1O (stereo unspecified)", "measured-parameter": "TGI", "value-measured": "80.2 µM"}
{"molecule": "COc1cc(C2C3=C(COC3=O)Oc3cc4c(cc32)OCO4)cc(OC)c1O (stereo unspecified)", "measured-parameter": "TGI", "value-measured": "1.48 µM"}
{"molecule": "COC(=O)C1C(O)C(C)C(O)C(C)C=C(C)C2=C3C(=C(C)C(=O)c4c(O)c(c(C)c(OC(C)=O)c43)NC(=O)C(C)=C/C=C\\C(C)C(O)C(C)C1O)OCO2 (stereo unspecified)", "measured-parameter": "TGI", "value-measured": "> 100 µM"}
{"molecule": "CCCCCCCCCCCCCCCCCCNc1nc(=O)n(C2CC(O)C(COP(=O)(O)O)O2)cc1F (stereo unspecified)", "measured-parameter": "TGI", "value-measured": "> 100 µM"}
{"molecule": "Cc1ccc(S(=O)(=O)c2ccccc2[N+](=O)[O-])cc1", "measured-parameter": "TGI", "value-measured": "> 100 µM"}
{"molecule": "N.N.N.N.N.O=[N+]([O-])[O-].[Co+3].[O-][Cl+3]([O-])([O-])[O-]", "measured-parameter": "TGI", "value-measured": "> 100 µM"}
{"molecule": "CCCC(=O)N[C@H]1C2C3CC4C5CC(C42)C1(C)C53 (stereo partly specified)", "measured-parameter": "TGI", "value-measured": "> 100 µM"}
{"molecule": "CCN(c1cc(-c2ccc(CN3CCOCC3)cc2)cc(C(=O)NCc2c(C)cc(C)[nH]c2=O)c1C)C1CCOCC1", "measured-parameter": "TGI", "value-measured": "> 100 µM"}
{"molecule": "CCOC(=O)c1cc(C)nc2c1c(=O)n(-c1ccccc1)c(=O)n2CCCCN1CCN(c2ccccc2)CC1", "measured-parameter": "TGI", "value-measured": "> 100 µM"}
{"molecule": "CC(C)(C)[Si](C)(C)OCc1cccc(OCCOc2cccc(CO[Si](C)(C)C(C)(C)C)c2[N+](=O)[O-])c1[N+](=O)[O-]", "measured-parameter": "TGI", "value-measured": "> 100 µM"}
{"molecule": "CN(C)CCn1c(CO)nc2c1c(=O)n(C)c(=O)n2C", "measured-parameter": "TGI", "value-measured": "> 100 µM"}
{"molecule": "COC[C@@H](N=Cc1ccc([N+](=O)[O-])cc1)C(C)C", "measured-parameter": "TGI", "value-measured": "> 100 µM"}
{"molecule": "NCCOCCOCCNc1nc(-c2ccc(Cl)cc2)nc(N2CCN(c3ccccn3)CC2)n1", "measured-parameter": "TGI", "value-measured": "6.28 µM"}
{"molecule": "CN1CCc2c1nc(-c1ccc(Cl)cc1)c1c2N(C)CC1", "measured-parameter": "TGI", "value-measured": "59.8 µM"}
{"molecule": "O=c1[nH]n(Cc2ccccc2)c2ccc([N+](=O)[O-])cc12", "measured-parameter": "TGI", "value-measured": "> 100 µM"}
{"molecule": "Cn1cc(-c2ccc3nnc(Sc4ccc5ncccc5c4)n3n2)cn1", "measured-parameter": "TGI", "value-measured": "> 100 µM"}
{"molecule": "O=C(c1ccccc1)c1c(NCC(O)CN2CCOCC2)n(Cc2ccccc2)c(=O)n(Cc2ccccc2)c1=O (stereo unspecified)", "measured-parameter": "TGI", "value-measured": "> 70.1 µM"}
{"molecule": "Cn1c(=O)oc2nc(-c3ccccc3)cc(C(F)(F)F)c21", "measured-parameter": "TGI", "value-measured": "> 100 µM"}
{"molecule": "C=CC[n+]1c2ccccc2n2cc([N+](=O)[O-])ccc21", "measured-parameter": "TGI", "value-measured": "> 100 µM"}
{"molecule": "O=c1cc(N/N=C/c2ccc(F)cc2)c2cc(Cl)ccc2[nH]1", "measured-parameter": "TGI", "value-measured": "83.4 µM"}
{"molecule": "O=C1OC[C@H]2[C@@H]1[C@H]1O[C@@H]2C2=C(CCC2)C1=O", "measured-parameter": "TGI", "value-measured": "> 100 µM"}
{"molecule": "Cn1c(-c2ccc(/C=N/NC(=S)N/N=C/c3ccc(-c4c[n+]5ccsc5n4C)cc3)cc2)c[n+]2ccsc12", "measured-parameter": "TGI", "value-measured": "> 100 µM"}
{"molecule": "Cc1c(C(=O)OCc2ccccc2)[n+](=O)c2cc(Cl)c(Cl)cc2n1[O-]", "measured-parameter": "TGI", "value-measured": "60 µM"}
{"molecule": "Cc1c(-c2ccnc(N)n2)c2c(n1Cc1ccccc1)C(=O)c1ccccc1C2=O", "measured-parameter": "TGI", "value-measured": "77.4 µM"}
{"molecule": "CCN=C1C=CC(=C(c2ccc(N(CC)CC)cc2)c2ccc(N(CC)CC)cc2)c2ccccc21", "measured-parameter": "TGI", "value-measured": "0.601 µM"}
{"molecule": "CC(C)(C)OC(=O)NCCCn1c2c(c3ccccc3c1=O)C(=O)c1ccccc1-2", "measured-parameter": "TGI", "value-measured": "> 100 µM"}
{"molecule": "C=C(C)CC1(O[Si](C)(C)C)C(=O)C(OCC)=C1OCC (stereo unspecified)", "measured-parameter": "TGI", "value-measured": "> 100 µM"}
{"molecule": "COc1ccc(C(O)c2cc3c(N)c(C(=O)Nc4cccc(Cl)c4)sc3nc2C)cc1 (stereo unspecified)", "measured-parameter": "TGI", "value-measured": "> 40.5 µM"}
{"molecule": "CC(=O)[O-].[Mn+3].[O-]c1ccccc1C=NCCNCCN=Cc1ccccc1[O-]", "measured-parameter": "TGI", "value-measured": "> 100 µM"}
{"molecule": "Cc1ccccc1N=C(N)Nc1ccccc1C", "measured-parameter": "TGI", "value-measured": "> 100 µM"}
{"molecule": "CCOP(=O)(OCC)/C(=C/c1cccs1)CC(C)=O", "measured-parameter": "TGI", "value-measured": "> 100 µM"}
{"molecule": "Cc1cc(O)c(C2=NN(c3ccc(S(N)(=O)=O)cc3)C(c3ccc(Cl)cc3)C2)c(C)c1Cl (stereo unspecified)", "measured-parameter": "TGI", "value-measured": "20.6 µM"}
{"molecule": "COc1ccc(-c2nc(-c3nc4ccc(F)cc4[nH]3)c3ccccn23)cc1", "measured-parameter": "TGI", "value-measured": "37.3 µM"}
{"molecule": "CC(=O)NC1C(OCc2ccccc2)OC(CO)C(O)C1OC(C)C(=O)NC(C(=O)NC(CCC(=O)NCCCCNc1c2ccccc2nc2cccc([N+](=O)[O-])c12)C(N)=O)C(C)C (stereo unspecified)", "measured-parameter": "TGI", "value-measured": "> 63.3 µM"}
{"molecule": "CCN(CC)C(=S)SS(=O)(=O)c1cccc(N)c1", "measured-parameter": "TGI", "value-measured": "> 100 µM"}
